Test: EMT-state selective cytotoxicity in co-culture – imaging, PC-3E GFP, TEM4-18 mCherry, primary screen (AID 1345086);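 note: cells exposed to compound for 72 h before imaging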
Details: PC-3E GFP / TEM4-18 mCherry co-culture, imaging cell counts; measured here: mesenchymal TEM4-18 mCherry cell survival; at 1 µM
Quick list: normalised cell number per entry.

See these solved cases before continuing.
1) CCCCC1C(=O)N(c2ccccc2)N(c2ccc(O)cc2)C1=O (stereo unspecified) :: 1.08
2) CC(C)NCC(O)COc1ccc(CCOCC2CC2)cc1 (stereo unspecified) :: 1.02
3) COc1ccc(C(=O)CC(=O)c2ccc(C(C)(C)C)cc2)cc1 :: 1.18
4) CC(=O)Oc1ccccc1C(=O)Nc1ncc([N+](=O)[O-])s1 :: 0.98
5) Nc1nc2c(c(=O)[nH]1)N(C=O)C(CNc1ccc(C(=O)N[C@@H](CCC(=O)O)C(=O)O)cc1)CN2 (stereo partly specified) :: 1.38

Please find the next molecule below.
Which normalised cell number is reported for this molecule? Cc1c(N(C)CS(=O)(=O)O)c(=O)n(-c2ccccc2)n1C
1.35

---

Test: viability loss in pontine glioma line – cell-based, JHH-DIPG-1, MIPE4.0, CellTiter-Glo, qHTS, dose response (AID 1347062);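 for AC50: cells exposed to compound for two days before readout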
Settings: JHH-DIPG-1 viability, CellTiter-Glo ATP luminescence
Records with an inconclusive call do not appear. Active and inactive are the calls of the source. No cut-off is given here; in the data, nearly all actives have AC50 up to about 27 µM.
Would you mind answering with one of these outcomes? yes (1) for active, no (0) for inactive

Answered examples (3):
1) Cn1c(=O)c2c(ncn2CC(O)CO)n(C)c1=O (centres undefined) :: no (0)
2) Cc1ccc(NC(=O)c2ccc(CN3CCN(C)CC3)cc2)cc1Nc1nccc(-c2cccnc2)n1 :: no (0)
3) CO[C@@]12[C@H](COC(N)=O)C3=C(C(=O)C(C)=C(N)C3=O)N1C[C@@H]1N[C@@H]12 :: yes (1)

Please share the test call associated with O=NN(CCCl)C(=O)NCCCl .
no (0)

---

Test system: R275C/beta4
Experiment: BK channel mutant inhibitors and activators – cell-based, U2OS BacMam, thallium flux, beta subunits, selectivity assay, profiling panel (AID 1259406);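 note: initial slope of Thallos dye fluorescence rise after thallium is added; log ratio against the mean of 0.3% DMSO vehicle wells on the same plate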
Details: U2OS BacMam BK variants, at 30 µM
Calls of active or inactive are those of the source.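 How the source made its calls: active means thallium flux through the channel raised or lowered by more than 3 SD from vehicle-only wells, actives on both sides; inactive means the rest.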
measure: log fold change Tl+ flux

Solved entries:
1) CCC(=O)O[C@]1(C(=O)SCF)[C@H](C)C[C@H]2[C@@H]3C[C@H](F)C4=CC(=O)C=C[C@]4(C)[C@@]3(F)[C@@H](O)C[C@@]21C :: 0.00493 (inactive)
2) CN1CCC(=C2c3ccccc3C=Cc3ccccc32)CC1 :: 0.0955 (active)
3) COC(=O)CCc1ccc(OCC(O)CNC(C)C)cc1 (configuration not stated) :: 0.0115 (inactive)
4) Nc1nc2c(ncn2CCC(CO)CO)c(=O)[nH]1 :: -0.0144 (inactive)
5) CCc1oc2ccccc2c1C(=O)c1cc(Br)c(O)c(Br)c1 :: 0.722 (active)
6) COc1ccccc1N1CCN(CC(O)COc2cccc3ccccc23)CC1 (configuration not stated) :: 0.167 (active)
7) CC(C(=O)O)c1ccc(CC2CCCC2=O)cc1 (configuration not stated) :: -0.000172 (inactive)
8) CCN(CC)CCNC(=O)c1cc(Cl)c(N)cc1OC :: -0.0991 (inactive)
9) CNNCc1ccc(C(=O)NC(C)C)cc1 :: 0.042 (inactive)
10) CC(C)(C#N)c1cc(Cn2cncn2)cc(C(C)(C)C#N)c1 :: -0.00704 (inactive)

Tell me reported log fold change Tl+ flux for Nc1nc(N)nc(-c2cc(Cl)ccc2Cl)n1 , tested with R275C/beta4.
-0.0246 (inactive)

Write down the reported log fold change Tl+ flux of CCc1nn(CCCN2CCN(c3cccc(Cl)c3)CC2)c(=O)n1CCOc1ccccc1 , test system: R275C/beta4.
0.207 (active)

---

Assay: NPC library primary testing for decreased DLD-1 cell viability via CellTiter-Glo (AID 1117346)
Settings: DLD-1 viability, CellTiter-Glo luminescence; at 20 µM (top of the series)
Active and inactive are the calls of the source.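 How the source made its calls: active means compounds that lower survival of DLD-1 colon cancer cells in the luminescence readout, no cutoff given; inactive means the rest.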 Starred links: 1 amine or outer side, 2 acyl side, 3 side chain; linkers in the order of their positions; H or OH if unused. Positions of bridges follow the written chain, without caps; N, C: chain ends. Non-standard residues stand in square brackets, D forms with d. Residues, ends and D or L forms follow the SMILES beside them. Chains are numbered I, II in the order given. Actinocin(9to1) = Cc1c2oc3c(C)ccc(C(=O)[*:1])c3nc-2c(C(=O)[*:2])c(N)c1=O; NMeV = CN[C@H](C(=O)O)C(C)C; Sar = CNCC(=O)O
Response enum: Yes for active, No for inactive

Examples with answers:
1) O=C(O)/C=C(\CC(=O)O)C(=O)O :: No
2) Cc1c2oc3c(C)ccc(C(=O)N[C@@H]4C(=O)N[C@H](C(C)C)C(=O)N5CCC[C@H]5C(=O)N(C)CC(=O)N(C)[C@@H](C(C)C)C(=O)O[C@@H]4C)c3nc-2c(C(=O)N[C@@H]2C(=O)N[C@H](C(C)C)C(=O)N3CCC[C@H]3C(=O)N(C)CC(=O)N(C)[C@@H](C(C)C)C(=O)O[C@@H]2C)c(N)c1=O (I: T[dV]P[Sar][NMeV] / II: T[dV]P[Sar][NMeV]; ester I:1-I:C, II:1-II:C; linker I:N-II:N via Actinocin(9to1)) :: Yes
3) CC1=CC(=O)c2ccccc2C1=O :: Yes

Now for another entry.
I would be grateful if you could indicate the recorded call for C[C@](N)(Cc1ccc(O)cc1)C(=O)O .
No

---

Test: signal quenchers or enhancers, Cy5 substrate/SSB – biochemical, NIH Clinical Collection, E. coli SSB, artefact control for HCV NS3 helicase inhibitor project (AID 743268)
Details: Cy5-oligo bound E. coli SSB, fluorescence interference
measure: fluorescence ratio
Answer with a bare number; do not write a unit.

Any idea what its fluorescence ratio is? The compound is CC(c1cc2ccccc2s1)N(O)C(N)=O (centres undefined)
1.02

Please give the measured fluorescence ratio for this compound: O=c1c(-c2ccccc2)c1-c1ccccc1
0.98

Find the recorded fluorescence ratio belonging to NS(=O)(=O)Cc1noc2ccccc12 and report it.
1

Give the measured fluorescence ratio of COc1ccc2nc(S(=O)Cc3ncc(C)c(OC)c3C)[nH]c2c1 (centres undefined) .
1.02

Entry O=C1[C@H]2CCCC[C@H]2C(=O)N1CCCCN1CCN(c2nsc3ccccc23)CC1 has what fluorescence ratio?
1

What value of fluorescence ratio has been recorded for this entry: Nc1c2c(nc3c1CCC3)CCCC2
0.99

Look up fluorescence ratio for this compound: C[C@]12C[C@H](O)[C@H]3[C@@H](CCC4=CC(=O)CC[C@@]43C)[C@@H]1CC[C@@H]2C(=O)CO
1.01

Request the reported fluorescence ratio associated with CCc1nn(CCCN2CCN(c3cccc(Cl)c3)CC2)c(=O)n1CCOc1ccccc1
0.98

I would be grateful if you could share the reported fluorescence ratio for COc1cc(OC)c(C(=O)CCCN2CCCC2)c(OC)c1 .
1.02

---

Assay: viability loss in pontine glioma line – cell-based, SU-DIPG-XIII, MIPE4.0, CellTiter-Glo, qHTS, dose response (AID 1347061);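 note: cells exposed to compound for 48 hours before readout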
Conditions: CellTiter-Glo ATP luminescence
Inconclusive results are not listed. Active and inactive are the calls of the source. The limit is not given here; nearly all actives have AC50 up to about 37 µM.
Please state which outcome applies, choosing from true = active, false = inactive

Use the examples below as a reference point.
1. CC(=O)Oc1ccccc1C(=O)Nc1ncc([N+](=O)[O-])s1 :: true
2. CNNCc1ccc(C(=O)NC(C)C)cc1 :: false
3. CC(=O)Nc1ccc(O)cc1 :: false

// return assay outcome for CC(C)NCC(O)COc1ccc(COCCOC(C)C)cc1 (stereo not drawn)
false

Status in this test for C[C@H]1c2cccc(O)c2C(O)=C2C(=O)[C@]3(O)C(O)=C(C(N)=O)C(=O)[C@@H](N(C)C)[C@@H]3[C@@H](O)[C@@H]21 ?
false

Field: outcome | Entry: Oc1ccc(C2CNCCc3c2cc(O)c(O)c3Cl)cc1 (stereo not drawn)
false

Assay outcome for COc1cc([C@H]2Oc3cc([C@H]4Oc5cc(O)cc(O)c5C(=O)[C@@H]4O)ccc3O[C@@H]2CO)ccc1O : what was it?
false

Give the logged outcome of this assay for the following compound: COc1cc2nc(N3CCN(C(=O)C4COc5ccccc5O4)CC3)nc(N)c2cc1OC (stereo not drawn)
false

---

Assay: reduced SW480 viability measured with CellTiter-Glo, NPC library, primary (AID 1117343)
Settings: CellTiter-Glo luminescence; at 20 µM (top of the series)
viability decrease (inhibition) overview
Report only the number, with the unit % understood.

1. CC1=C(C(=O)O)N2C(=O)[C@@H](NC(=O)[C@H](N)C3=CCC=CC3)[C@H]2SC1 :: 34.9
2. O=C(CCCN1CCN(c2ccccn2)CC1)c1ccc(F)cc1 :: 11.4

Using the record for CCOC(=O)c1ccc(N)cc1 , report its viability decrease (inhibition).
87.8

Any idea what its viability decrease (inhibition) is? The compound is COCCc1ccc(OCC(O)CNC(C)C)cc1 (configuration not stated)
17.2

Sample CN(C)/N=N/c1nc[nH]c1C(N)=O — what was its viability decrease (inhibition)?
34.5

Entry CCCCOc1ccc(OCCCN2CCOCC2)cc1 : reported viability decrease (inhibition) = ?
46.8

Which measured viability decrease (inhibition) value corresponds to CC(Cc1cccc(C(F)(F)F)c1)NCCOC(=O)c1ccccc1 (configuration not stated) ?
51.4
